Measured inhibition of growth at 37.5 g/ha by item
System: Echinochloa crus-galli
Test: Pre-emergence herbicidal activity against Echinochloa crus-galli (barnyard grass) assessed as growth inhibition at 37.5 g.a.i./ha applied 24 hr after seeds were sown measured after 15 days
Format: functional
Conditions: read-out: GI
endpoint-label: inhibition of growth at 37.5 g/ha

[
  {
    "compound": "CCOC(=O)C(CC)N1C(=O)C(C)Oc2cc(F)c(N3C(=O)C4=C(CCCC4)C3=O)cc21 (centres undefined)",
    "target-system": "Echinochloa crus-galli",
    "value": "0%"
  },
  {
    "compound": "CCOC(=O)C(C)N1C(=O)C(C)Oc2cc(F)c(N3C(=O)C4=C(CCCC4)C3=O)cc21 (centres undefined)",
    "target-system": "Echinochloa crus-galli",
    "value": "30%"
  },
  {
    "compound": "C#CCN1C(=O)COc2cc(F)c(N3C(=O)C4=C(CCCC4)C3=O)cc21",
    "target-system": "Echinochloa crus-galli",
    "value": "70%"
  },
  {
    "compound": "COC(=O)C(C)N1C(=O)C(C)Oc2cc(F)c(N3C(=O)C4=C(CCCC4)C3=O)cc21 (centres undefined)",
    "target-system": "Echinochloa crus-galli",
    "value": "80%"
  }
]

====

System: Amaranthus
Assay: Post-emergence herbicidal activity against Amaranthus ascendens assessed as growth inhibition at 75 g.a.i./ha applied at two-leaf stage measured after 15 days
Assay type: functional
Details: 360 h, read-out: GI

[
  {
    "molecule": "CCOC(=O)CN1C(=O)COc2cc(N3C(=O)c4cc(Cl)c(Cl)cc4C3=O)c(F)cc21",
    "target-system": "Amaranthus",
    "inhibition of growth at 75 g/ha": "< 50%"
  },
  {
    "molecule": "CCOC(=O)C(CC)N1C(=O)C(C)Oc2cc(F)c(N3C(=O)C4=C(CCCC4)C3=O)cc21 (stereo not drawn)",
    "target-system": "Amaranthus",
    "inhibition of growth at 75 g/ha": "> 80%"
  },
  {
    "molecule": "CCOC(=O)CN1C(=O)COc2cc(F)c(N3C(=O)c4ccc([N+](=O)[O-])cc4C3=O)cc21",
    "target-system": "Amaranthus",
    "inhibition of growth at 75 g/ha": "50%"
  },
  {
    "molecule": "CCOC(=O)CN1C(=O)COc2cc(F)c(N3C(=O)c4ccc(C)cc4C3=O)cc21",
    "target-system": "Amaranthus",
    "inhibition of growth at 75 g/ha": "50%"
  },
  {
    "molecule": "CCOC(=O)C(C)N1C(=O)COc2cc(F)c(N3C(=O)c4ccc([N+](=O)[O-])cc4C3=O)cc21 (stereo not drawn)",
    "target-system": "Amaranthus",
    "inhibition of growth at 75 g/ha": "< 50%"
  },
  {
    "molecule": "CCOC(=O)C(C)N1C(=O)C(C)Oc2cc(F)c(N3C(=O)C4=C(CCCC4)C3=O)cc21 (stereo not drawn)",
    "target-system": "Amaranthus",
    "inhibition of growth at 75 g/ha": "> 80%"
  },
  {
    "molecule": "COC(=O)C(C)N1C(=O)COc2cc(F)c(N3C(=O)C4=C(CCCC4)C3=O)cc21 (stereo not drawn)",
    "target-system": "Amaranthus",
    "inhibition of growth at 75 g/ha": "> 80%"
  },
  {
    "molecule": "C#CCN1C(=O)COc2cc(F)c(N3C(=O)c4ccc(F)cc4C3=O)cc21",
    "target-system": "Amaranthus",
    "inhibition of growth at 75 g/ha": "> 80%"
  },
  {
    "molecule": "CCOC(=O)C(c1ccccc1)N1C(=O)C(C)Oc2cc(F)c(N3C(=O)C4=C(CCCC4)C3=O)cc21 (stereo not drawn)",
    "target-system": "Amaranthus",
    "inhibition of growth at 75 g/ha": "> 80%"
  },
  {
    "molecule": "CCOC(=O)CN1C(=O)COc2cc(F)c(N3C(=O)c4ccccc4C3=O)cc21",
    "target-system": "Amaranthus",
    "inhibition of growth at 75 g/ha": "> 80%"
  },
  {
    "molecule": "CCOC(=O)C(c1ccccc1)N1C(=O)COc2cc(F)c(N3C(=O)C4=C(CCCC4)C3=O)cc21 (stereo not drawn)",
    "target-system": "Amaranthus",
    "inhibition of growth at 75 g/ha": "> 80%"
  },
  {
    "molecule": "CCOC(=O)CN1C(=O)COc2cc(F)c(N3C(=O)c4cc(Cl)c(Cl)cc4C3=O)cc21",
    "target-system": "Amaranthus",
    "inhibition of growth at 75 g/ha": "50%"
  },
  {
    "molecule": "CCOC(=O)CN1C(=O)COc2cc(F)c(N3C(=O)C4=C(CCCC4)C3=O)cc21",
    "target-system": "Amaranthus",
    "inhibition of growth at 75 g/ha": "> 80%"
  },
  {
    "molecule": "CCC(C(=O)OC)N1C(=O)COc2cc(F)c(N3C(=O)C4=C(CCCC4)C3=O)cc21 (stereo not drawn)",
    "target-system": "Amaranthus",
    "inhibition of growth at 75 g/ha": "> 80%"
  },
  {
    "molecule": "CCOC(=O)C(CC)N1C(=O)COc2cc(F)c(N3C(=O)C4=C(CCCC4)C3=O)cc21 (stereo not drawn)",
    "target-system": "Amaranthus",
    "inhibition of growth at 75 g/ha": "> 80%"
  },
  {
    "molecule": "CCOC(=O)C(C)N1C(=O)COc2cc(F)c(N3C(=O)c4ccc(C)cc4C3=O)cc21 (stereo not drawn)",
    "target-system": "Amaranthus",
    "inhibition of growth at 75 g/ha": "< 50%"
  },
  {
    "molecule": "CCOC(=O)CN1C(=O)C(C)Oc2cc(F)c(N3C(=O)C4=C(CCCC4)C3=O)cc21 (stereo not drawn)",
    "target-system": "Amaranthus",
    "inhibition of growth at 75 g/ha": "> 80%"
  },
  {
    "molecule": "CCOC(=O)CN1C(=O)COc2cc(N3C(=O)c4ccccc4C3=O)c(F)cc21",
    "target-system": "Amaranthus",
    "inhibition of growth at 75 g/ha": "< 50%"
  },
  {
    "molecule": "COC(=O)C(C)N1C(=O)COc2cc(F)c(N3C(=O)c4ccccc4C3=O)cc21 (stereo not drawn)",
    "target-system": "Amaranthus",
    "inhibition of growth at 75 g/ha": "> 80%"
  },
  {
    "molecule": "COC(=O)C(C)N1C(=O)C(C)Oc2cc(F)c(N3C(=O)C4=C(CCCC4)C3=O)cc21 (stereo not drawn)",
    "target-system": "Amaranthus",
    "inhibition of growth at 75 g/ha": "> 80%"
  },
  {
    "molecule": "CCOC(=O)C(C)N1C(=O)COc2cc(F)c(N3C(=O)c4cc(Cl)c(Cl)cc4C3=O)cc21 (stereo not drawn)",
    "target-system": "Amaranthus",
    "inhibition of growth at 75 g/ha": "< 50%"
  },
  {
    "molecule": "COC(=O)CN1C(=O)COc2cc(F)c(N3C(=O)c4ccccc4C3=O)cc21",
    "target-system": "Amaranthus",
    "inhibition of growth at 75 g/ha": "> 80%"
  },
  {
    "molecule": "COC(=O)CN1C(=O)C(C)Oc2cc(F)c(N3C(=O)C4=C(CCCC4)C3=O)cc21 (stereo not drawn)",
    "target-system": "Amaranthus",
    "inhibition of growth at 75 g/ha": "> 80%"
  },
  {
    "molecule": "CCOC(=O)C(C)N1C(=O)COc2cc(F)c(N3C(=O)C4=C(CCCC4)C3=O)cc21 (stereo not drawn)",
    "target-system": "Amaranthus",
    "inhibition of growth at 75 g/ha": "> 80%"
  },
  {
    "molecule": "C#CCN1C(=O)COc2cc(F)c(N3C(=O)C4=C(CCCC4)C3=O)cc21",
    "target-system": "Amaranthus",
    "inhibition of growth at 75 g/ha": "> 80%"
  },
  {
    "molecule": "COC(=O)CN1C(=O)COc2cc(F)c(N3C(=O)C4=C(CCCC4)C3=O)cc21",
    "target-system": "Amaranthus",
    "inhibition of growth at 75 g/ha": "> 80%"
  },
  {
    "molecule": "CCOC(=O)CN1C(=O)COc2cc(N3C(=O)c4ccc(C)cc4C3=O)c(F)cc21",
    "target-system": "Amaranthus",
    "inhibition of growth at 75 g/ha": "< 50%"
  },
  {
    "molecule": "CCOC(=O)C(C)(C)N1C(=O)C(C)Oc2cc(F)c(N3C(=O)C4=C(CCCC4)C3=O)cc21 (stereo not drawn)",
    "target-system": "Amaranthus",
    "inhibition of growth at 75 g/ha": "> 80%"
  }
]

Data provenance is ChEMBL document CHEMBL3045743.
